Data origin: patent US8957049B2

# SYSTEM: human FAAH (Homo sapiens)
# Construct: host or cells: COS-7 cells, transient transfection (FuGENE 6); 13,000 g membrane fraction solubilised in 1% Triton X-100
# Sequence (O00519 1-579): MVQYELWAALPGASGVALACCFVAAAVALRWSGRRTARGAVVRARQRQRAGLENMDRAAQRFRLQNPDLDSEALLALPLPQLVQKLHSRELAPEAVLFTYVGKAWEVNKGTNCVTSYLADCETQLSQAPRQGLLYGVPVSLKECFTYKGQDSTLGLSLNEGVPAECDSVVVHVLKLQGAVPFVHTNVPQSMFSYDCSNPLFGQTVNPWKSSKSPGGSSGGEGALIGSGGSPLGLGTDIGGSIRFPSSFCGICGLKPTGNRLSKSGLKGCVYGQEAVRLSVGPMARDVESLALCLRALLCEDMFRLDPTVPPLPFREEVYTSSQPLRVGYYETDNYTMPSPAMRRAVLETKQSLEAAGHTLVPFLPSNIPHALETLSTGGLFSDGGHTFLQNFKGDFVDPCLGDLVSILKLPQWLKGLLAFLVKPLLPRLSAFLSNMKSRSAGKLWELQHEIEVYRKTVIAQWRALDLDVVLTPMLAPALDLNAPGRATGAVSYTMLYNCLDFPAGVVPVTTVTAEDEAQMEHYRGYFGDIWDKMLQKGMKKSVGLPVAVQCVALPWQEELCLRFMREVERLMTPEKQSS
# TEST SUMMARY: Human FAAH biochemical inhibition assay (AMC arachidonoyl amide fluorescence)
# CONDITION SUMMARY: class given in each Example, read-out: Activity (Ki, inhibition of human FAAH)
pKi: −log10 of the molar value.
RECORDED ENDPOINT: pKi

>>> result("CCCC1CC(c2ccccc2B(O)O)=NO1 (stereo not shown) [Compound 167]")
"7.00 to 8.00"
>>> result("CCCCOc1ccc2c(c1)C=NOB2O [Compound 277]")
"6.00 to 7.00"
>>> result("Cn1cncc1-c1nnc(-c2ccc(B(O)O)cc2)o1 [Compound 54]")
"7.00 to 8.00"
>>> result("OB(O)c1ccc(OCc2ccccc2)cc1/C=N/OCc1ccccc1 [Compound 115]")
"7.00 to 8.00"
>>> result("OB(O)c1ccc2nc(OC3CCCC3)ccc2c1 [Compound 190]")
"≥ 8.00"

Exercise: Item O=[N+]([O-])c1cccc(Oc2ccc3cc(B(O)O)ccc3n2)c1 [Compound 195] with human FAAH (Homo sapiens) - pKi?
Solution: ≥ 8.00

Exercise: Item OB(O)c1cccc2cccc(COc3cccc(F)c3)c12 [Compound 151] with human FAAH (Homo sapiens) - pKi?
Solution: < 6.00

Exercise: Item OB(O)c1ccc(C2CC(c3ccccc3)=NO2)cc1 (stereo not shown) [Compound 152] with human FAAH (Homo sapiens) - pKi?
Solution: ≥ 8.00

Exercise: Item OB(O)c1ccc2nc(CC3CCN(Cc4ccccc4)CC3)oc2c1 [Compound 302] with human FAAH (Homo sapiens) - pKi?
Solution: 7.00 to 8.00

Exercise: Item O=C(CCN1C(=O)C=CC1=O)N/N=C/c1cc(OCCc2ccccc2)ccc1B(O)O [Compound 119] with human FAAH (Homo sapiens) - pKi?
Solution: ≥ 8.00

----------
# maps each entry to its pKi
# SYSTEM: human FAAH (Homo sapiens, UniProt O00519)
# Construct: host or cells: COS-7 cells, transient transfection (FuGENE 6); 13,000 g membrane fraction solubilised in 1% Triton X-100
# TEST SUMMARY: Human FAAH biochemical inhibition assay (AMC arachidonoyl amide fluorescence)
# CONDITION SUMMARY: class given in each Example, read-out: Activity (Ki, inhibition of human FAAH)
pKi: −log10 of the molar value.

Below, 6 compounds whose answers are already recorded.
>>> result("CC(C)CN1CCC(Cc2nc3ccc(B(O)O)cc3o2)CC1")
"< 6.00"
>>> result("O=C(CCB(O)O)NCCc1ccccc1")
"6.00 to 7.00"
>>> result("OB(O)c1ccc(-c2cn(Cc3ccccc3)nn2)cc1F")
"7.00 to 8.00"
>>> result("OB(O)c1ccc(-c2nnc(-c3cccnc3)s2)cc1")
"≥ 8.00"
>>> result("OB(O)c1ccc(-c2nnc(-c3cccc4c3OCC4)o2)cc1")
"≥ 8.00"
>>> result("OB(O)c1ccc(-c2ncc(-c3ccccc3)o2)cc1")
"7.00 to 8.00"

Exercise: Reported pKi for OB(O)c1ccccc1-c1nnc(-c2ccco2)o1 : what is it?
Solution: < 6.00

Exercise: Reported pKi for CCOc1ccc2cc(B(O)O)ccc2n1 : what is it?
Solution: 7.00 to 8.00

Exercise: Reported pKi for CCCc1nnc(-c2cc(F)ccc2B(O)O)o1 : what is it?
Solution: < 6.00

Exercise: Reported pKi for CCCc1nnc(-c2c(F)cccc2B(O)O)o1 : what is it?
Solution: < 6.00

Exercise: Reported pKi for O=C(Cc1ccccc1)N/N=C/c1cc(OCc2ccccc2)ccc1B(O)O : what is it?
Solution: 7.00 to 8.00

Exercise: Reported pKi for O=C(CCc1ccc(B(O)O)cc1)NCc1ccccc1 : what is it?
Solution: 6.00 to 7.00

Exercise: Reported pKi for Cc1nnc(-c2cc(OCCc3ccccc3)ccc2B(O)O)o1 : what is it?
Solution: ≥ 8.00

Exercise: Reported pKi for O=C(CCCC1CCN(Cc2ccc(B(O)O)cc2)CC1)c1ncco1 : what is it?
Solution: 6.00 to 7.00

Exercise: Reported pKi for CCCCCc1nnc(-c2ccc(B(O)O)cn2)o1 : what is it?
Solution: ≥ 8.00

Exercise: Reported pKi for OB(O)c1ccc(-c2nnc(Cc3ccccc3)o2)cc1F : what is it?
Solution: 7.00 to 8.00

Exercise: Reported pKi for CCCc1cc(-c2ccccc2B(O)O)no1 : what is it?
Solution: < 6.00

Exercise: Reported pKi for OB(O)c1ccc(-c2nnc(-c3cncc(F)c3)o2)cc1 : what is it?
Solution: 7.00 to 8.00

Exercise: Reported pKi for OB(O)c1ccc(Cn2cc(-c3ccccc3)nn2)cc1 : what is it?
Solution: 7.00 to 8.00

Exercise: Reported pKi for CC(C)(C)c1nnc(-c2ccc(B(O)O)cc2)o1 : what is it?
Solution: ≥ 8.00

Exercise: Reported pKi for OB(O)c1ccccc1-c1nnc(CCc2ccccc2)o1 : what is it?
Solution: < 6.00

Exercise: Reported pKi for CCOCc1nnc(-c2ccc(B(O)O)cc2)o1 : what is it?
Solution: 7.00 to 8.00

----------
# SYSTEM: human FAAH (Homo sapiens, UniProt O00519)
# Construct: host or cells: COS-7 cells, transient transfection (FuGENE 6); 13,000 g membrane fraction solubilised in 1% Triton X-100
# TEST SUMMARY: Human FAAH biochemical inhibition assay (AMC arachidonoyl amide fluorescence)
# CONDITION SUMMARY: class given in each Example, read-out: Activity (Ki, inhibition of human FAAH)
pKi: −log10 of the molar value.
# maps each entry to its pKi

Below, 2 compounds whose answers are already recorded.
>>> result("COCCCc1cn(-c2ccccc2)nc1-c1ccc(B(O)O)cc1")
"< 6.00"
>>> result("CN1N=Cc2cc(OCCc3ccccc3)ccc2B1O")
"< 6.00"

Exercise: Item CC(C)(C)OC(=O)N1CCC(c2ccc(B(O)O)cc2)CC1 with human FAAH (Homo sapiens, UniProt O00519) - pKi?
Solution: ≥ 8.00

Exercise: Item OB(O)c1ccc2nc(-c3ccccc3)c(Br)n2c1 with human FAAH (Homo sapiens, UniProt O00519) - pKi?
Solution: ≥ 8.00

Exercise: Item OB1c2cc3c(cc2C=NN1Cc1ccccc1)OCO3 with human FAAH (Homo sapiens, UniProt O00519) - pKi?
Solution: < 6.00

Exercise: Item CCCc1nnc(-c2ccccc2B(O)O)s1 with human FAAH (Homo sapiens, UniProt O00519) - pKi?
Solution: < 6.00

Exercise: Item O=C1CC(c2nc3ccc(B(O)O)cc3o2)CN1Cc1ccccc1 (stereo not shown) with human FAAH (Homo sapiens, UniProt O00519) - pKi?
Solution: 7.00 to 8.00

Exercise: Item OB(O)c1ccc2nc(Nc3ccccc3)ccc2c1 with human FAAH (Homo sapiens, UniProt O00519) - pKi?
Solution: ≥ 8.00

Exercise: Item OB(O)c1ccc(OCCc2ccccc2)cc1/C=C/CCc1ccccc1 with human FAAH (Homo sapiens, UniProt O00519) - pKi?
Solution: 6.00 to 7.00

Exercise: Item OB(O)c1ccc(OCc2ccccc2)cc1CNCc1ccccc1 with human FAAH (Homo sapiens, UniProt O00519) - pKi?
Solution: 6.00 to 7.00
